Data origin, for the record: ChEMBL document CHEMBL5724801

Kindly state Population Mitochondria Different-Phenotype (%) for each of the entries shown.
tested on: U2OS; assay: Multiplex assay against U2OS; type: toxicity, cell-based; details: human, 24 h, 10 µM, compound concentration 10 uM
The reply should contain only the number, in %.

Entry `CN(C)C(=O)Cn1cc(-c2ccc(-c3nnc4ccccn34)cc2)cn1` has what Population Mitochondria Different-Phenotype (%)? 1

Fill in: Population Mitochondria Different-Phenotype (%) of `CCOc1c2c(c(OCC)c3ncccc13)CN(c1ccc(CS(=O)(=O)NC(=O)Cc3ccccc3OC)cc1C)C2=O` is ___ 2

Could you tell me which Population Mitochondria Different-Phenotype (%) is on file for CN1C[C@H](C(=O)N[C@]2(C)O[C@@]3(O)[C@@H]4CCCN4C(=O)[C@H](Cc4ccccc4)N3C2=O)C[C@@H]2c3cccc4[nH]cc(c34)C[C@H]21.CS(=O)(=O)O [DIHYDROERGOTAMINE MESYLATE] ? 2

Need Population Mitochondria Different-Phenotype (%) of `Cc1c(Cc2ccc3ccccc3n2)c2cc(F)ccc2n1CC(=O)O` , thanks. 2

###

test system: U2OS; test: Multiplex assay against U2OS; type: toxicity, cell-based; conditions: human, 24 h, 10 µM, compound concentration 10 uM
OBSERVATION TYPE: Population Normal (%)
Provide only the numeric value, understood in %.

Under U2OS: Population Normal (%) value of `COc1cc(Nc2ncc3c(n2)-c2ccc(Cl)cc2C(c2c(F)cccc2OC)=NC3)ccc1C(=O)O` ? 95

Form entry - test system: U2OS; read-out: Population Normal (%); molecule: `O=C(Nc1cc(C(F)(F)F)ccc1N1CCCCC1)c1ccncc1` 100

Request: Population Normal (%), test system U2OS, entry `Cc1cccc(F)c1C(=O)Nc1cnc(-c2cc3c(cc2Cl)OC(F)(F)O3)cn1` 100

Entry CC(C)CNc1nc(N2CCN(CC3CCCOC3)CC2)ncc1C(=O)NCc1ccccc1 (stereo not given) , system U2OS: what Population Normal (%) was measured? 100

# value lookup — system U2OS, readout Population Normal (%), item `COC(=O)c1ccc2c(c1)NC(=O)/C2=C(\Nc1ccc(N(C)C(=O)CN2CCN(C)CC2)cc1)c1ccccc1` 100

Lab note: need Population Normal (%) for `Cc1cc(C)cc(C(=O)NOCCCCCC(=O)NO)c1` on U2OS, anyone have it? 100

# query: Population Normal (%) | item `Nc1nccc(-c2ccn3c(N)nccc23)n1` | system: U2OS 100

Notebook entry, U2OS assay: Population Normal (%) of `COc1ccc2[nH]c(I)c(CCNC(C)=O)c2c1` = ? 98

Recall the recorded Population Normal (%) for `COCCNc1cc(NC(=O)N2CCCc3cc(CN4CCN(C)CC4=O)c(C=O)nc32)ncc1C#N` with U2OS and state it. 100

Request: Population Normal (%), test system U2OS, entry Cc1[nH]nc2ccc(-c3cncc(OCC(N)Cc4c[nH]c5ccccc45)c3)cc12 (stereo not given) 100

###

system: U2OS; test: Multiplex assay against U2OS; assay type: toxicity, cell-based; details: human, 48 h, 1 µM, compound concentration 1 uM
OBSERVATION TYPE: Population Normal (%)
The figure you give is taken to be in %; do not add the unit.

I would be grateful if you could share the reported Population Normal (%) for CC(C)CNc1nc(N2CCN(CC3CCCOC3)CC2)ncc1C(=O)NCc1ccccc1 (stereo not given) . 100

For the molecule shown here, `CN(C)C(=O)Cn1cc(-c2ccc(-c3nnc4ccccn34)cc2)cn1` , give the reported Population Normal (%). 97

Give the measured Population Normal (%) of `Cc1c(CC(=O)O)c2cccnc2n1Cc1ccc(S(C)(=O)=O)cc1C(F)(F)F` . 97

GET /values?readout=Population Normal (%)&item= `COc1cc(/C=C(\C#N)C(=O)Nc2nnc(C(F)(F)F)s2)ccc1OCc1ccc(C(F)(F)F)cc1C(F)(F)F` 100

Request the reported Population Normal (%) associated with `Cl.O=S(=O)(c1cccc2c(I)cccc12)N1CCCNCC1` 100

I would be grateful if you could share the reported Population Normal (%) for `Nc1nccc(-c2ccn3c(N)nccc23)n1` . 100

Item under review: `CN(C)Cc1cccc(NC(=C2C(=O)Nc3cc(C(=O)N(C)C)ccc32)c2ccccc2)c1` . Reported Population Normal (%)? 100

State the recorded Population Normal (%) for this entry: `Cc1cccc(F)c1C(=O)Nc1cnc(-c2cc3c(cc2Cl)OC(F)(F)O3)cn1` 100

// Population Normal (%) lookup, key: `COC(=O)c1ccc2c(c1)NC(=O)/C2=C(\Nc1ccc(N(C)C(=O)CN2CCN(C)CC2)cc1)c1ccccc1` 100

Endpoint output: Population Normal (%) of `O=C(Nc1cc(C(F)(F)F)ccc1N1CCCCC1)c1ccncc1` . Value? 100

Which Population Normal (%) value belongs to `COc1cc(Nc2ncc3c(n2)-c2ccc(Cl)cc2C(c2c(F)cccc2OC)=NC3)ccc1C(=O)O` ? 96

Item `CCOC(=O)c1cnn(-c2ccc(NC(=O)C(Cl)=C(Cl)Cl)cc2)c1C(F)(F)F` has what recorded Population Normal (%)? 100

// Population Normal (%) lookup, key: `C=CC(=O)Nc1cc(Nc2nccc(-n3cc(CN(C)C)c(-c4ccccc4)n3)n2)c(OC)cc1N1CCOCC1` 100

Consider the molecule Cc1[nH]nc2ccc(-c3cncc(OCC(N)Cc4c[nH]c5ccccc45)c3)cc12 (stereo not given) and give its measured Population Normal (%). 100

Need Population Normal (%), item Cc1cc(C)c(NC(=O)C2CC3CCC2C3)c(C)c1 (stereo not given) 100
